Reference source for all entries: patent US20210255193A1

Target: NUDT22 Nucleoside diphosphate-linked moiety X motif 22 (Homo sapiens, UniProt Q9BRQ3)
Construct: isoTOP-ABPP experiments performed in cell lysates (in vitro); endogenous in cells; host or cells: soluble proteome of human cancer cell lines (MDA-MB-231; Ramos and Jurkat also prepared)
Sequence (Q9BRQ3 1-303): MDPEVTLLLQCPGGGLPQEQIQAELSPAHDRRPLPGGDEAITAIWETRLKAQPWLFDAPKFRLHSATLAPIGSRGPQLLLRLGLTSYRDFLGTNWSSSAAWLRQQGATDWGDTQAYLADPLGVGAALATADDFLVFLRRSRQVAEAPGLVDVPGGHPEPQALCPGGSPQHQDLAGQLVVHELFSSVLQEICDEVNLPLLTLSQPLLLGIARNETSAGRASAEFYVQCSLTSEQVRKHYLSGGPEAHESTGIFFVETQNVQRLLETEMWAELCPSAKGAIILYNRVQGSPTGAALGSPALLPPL
Assay: competitive isoTOP-ABPP
Assay type: binding
Conditions: 50 uM, in vitro, sol, 231
Tag: Y if measured isoTOP-ABPP ratio (R) at liganded lysine Q9BRQ3_K60 is not below 0.9, N if it is.

>>> class_assignment("O=C(Oc1ccc([N+](=O)[O-])cc1[N+](=O)[O-])c1ccc(-c2ccccc2)cc1")
"Y"
>>> class_assignment("CC(C)(C)OC(=O)NCCCC(=O)Oc1ccc([N+](=O)[O-])cc1[N+](=O)[O-]")
"Y"
>>> class_assignment("O=C(Oc1ccc([N+](=O)[O-])cc1[N+](=O)[O-])c1ccc2ccccc2n1")
"Y"
>>> class_assignment("O=C(Oc1ccc([N+](=O)[O-])cc1[N+](=O)[O-])C(c1ccccc1)(c1ccccc1)c1ccccc1 [fragment 42, 2,4-Dinitrophenyl 2,2,2-triphenylacetate]")
"N"

====

Biological target: SLC25A5 ADP/ATP translocase 2 (Homo sapiens)
Construct: isoTOP-ABPP experiments performed in cell lysates (in vitro); endogenous in cells; host or cells: MDA-MB-231 soluble lysate
Sequence (P05141 whole entry): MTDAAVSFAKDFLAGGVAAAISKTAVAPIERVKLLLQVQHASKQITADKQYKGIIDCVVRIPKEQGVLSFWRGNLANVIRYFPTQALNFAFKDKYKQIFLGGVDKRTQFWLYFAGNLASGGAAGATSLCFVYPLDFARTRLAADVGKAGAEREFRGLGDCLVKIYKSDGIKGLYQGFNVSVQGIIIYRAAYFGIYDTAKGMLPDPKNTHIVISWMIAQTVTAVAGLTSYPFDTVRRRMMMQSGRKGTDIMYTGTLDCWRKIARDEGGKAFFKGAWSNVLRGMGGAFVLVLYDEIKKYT
Assay: competitive isoTOP-ABPP
Type: binding
Settings: 50 uM, in vitro, sol, 231
readout: isoTOP-ABPP ratio (R) at liganded lysine P05141_K23

>>> result_value("O=C(Oc1ccc([N+](=O)[O-])cc1[N+](=O)[O-])c1ccc2ccccc2n1")
1.1
>>> result_value("O=C(Oc1ccc([N+](=O)[O-])cc1[N+](=O)[O-])c1ccccc1Nc1cccc(C(F)(F)F)c1")
0.8
>>> result_value("O=C(Oc1ccc([N+](=O)[O-])cc1[N+](=O)[O-])c1ccc(Oc2ccccc2)cc1 [fragment 39, 2,4-Dinitrophenyl 4-phenoxybenzoate]")
0.9

====

Target: TTR Transthyretin (Homo sapiens, UniProt P02766)
Construct: isoTOP-ABPP experiments performed in cell lysates (in vitro); endogenous in cells; host or cells: MDA-MB-231 soluble lysate
Experiment: competitive isoTOP-ABPP
Assay type: binding
Settings: 50 uM, in vitro, sol, 231
Protocol: In vitro covalent fragment treatment for isoTOP-ABPP. All compounds were made up as solutions in DMSO (100×) and were used at a final concentration of 50 μM for activated esters and 100 μM for guanidinylating agents. […] R value calculation and processing. The ratios of light and heavy MS1 peaks for each unique peptide were quantified with a CIMAGE software using default parameters (3 MS1 acquisitions per peak and signal to noise threshold set to 2.5). […]
Recorded isoTOP-ABPP ratio (R) at liganded lysine P02766_K35 for the following compounds
readout: isoTOP-ABPP ratio (R) at liganded lysine P02766_K35

>>> result_value("O=C(Oc1ccc([N+](=O)[O-])cc1[N+](=O)[O-])C1CCN(C(=O)OCc2ccccc2)CC1 [fragment 34]")
2.2
>>> result_value("O=C(CCc1coc2cc(F)ccc2c1=O)Oc1ccc([N+](=O)[O-])cc1[N+](=O)[O-] [fragment 36]")
2.4
>>> result_value("CC(C)(C)OC(=O)NCCCC(=O)Oc1ccc([N+](=O)[O-])cc1[N+](=O)[O-] [fragment 41]")
3.4
>>> result_value("O=C(Oc1ccc([N+](=O)[O-])cc1[N+](=O)[O-])c1ccc2ccccc2n1 [fragment 35]")
15.6
>>> result_value("O=C(CC12CC3CC(CC(C3)C1)C2)Oc1ccc([N+](=O)[O-])cc1[N+](=O)[O-] [fragment 38]")
1.2
>>> result_value("O=C(Oc1ccc([N+](=O)[O-])cc1[N+](=O)[O-])c1ccc(Oc2ccccc2)cc1 [fragment 39, 2,4-Dinitrophenyl 4-phenoxybenzoate]")
2.2
>>> result_value("O=C(Oc1ccc([N+](=O)[O-])cc1[N+](=O)[O-])C(c1ccccc1)(c1ccccc1)c1ccccc1 [fragment 42, 2,4-Dinitrophenyl 2,2,2-triphenylacetate]")
1.0
